Biological target: T1, Bfl-1, Q16548
T1 chain: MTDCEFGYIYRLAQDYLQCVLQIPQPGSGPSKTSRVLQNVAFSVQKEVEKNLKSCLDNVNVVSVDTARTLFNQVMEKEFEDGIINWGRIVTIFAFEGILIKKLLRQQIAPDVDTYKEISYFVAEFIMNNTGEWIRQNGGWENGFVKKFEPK
Test: peptide SPOT array, c-Myc-tagged receptor at 1 uM or 100 nM, anti-c-Myc-Cy3
Categorized via SPOT signal as a fraction of Bim BH3's signal on the same receptor and array: low interval: < 0.04; middle interval: ≥ 0.04 and < 0.09; high interval: ≥ 0.09

{"Binder": "ADAIRPRCVEDRHLCDDFINGNKKKW [MCF2L2]", "Class label": "middle interval"}
{"Binder": "WVKSIRICTPMGKLLDSCHPLTRKVP [PROK2]", "Class label": "high interval"}

Asked: # classify by SPOT signal as a fraction of Bim BH3's signal on the same receptor and array band: LCQLSCVSKLMRDVCGSLLQSRGMVI [FBXO30]
Given back: high interval

Asked: # classify by SPOT signal as a fraction of Bim BH3's signal on the same receptor and array band: FSSDAVTSRVLLNVGQEVIAVVEENK [MOV10L1]
Given back: low interval

Asked: # classify by SPOT signal as a fraction of Bim BH3's signal on the same receptor and array band: FEKLRMIAKEIRHVGRMASVNMDPAL [RAPGEF2]
Given back: high interval
